Origin of the recorded values: ChEMBL document CHEMBL1133057

tested on: Escherichia coli; test: Compound was tested in vitro for its minimum inhibitory concentration by serial 2-fold agar dilution Muller Hinton method against Escherichia coli O 55; assay type: functional
readout.type: MIC (µg/mL)

1) CCO/N=C(\C(=O)NC1C(=O)N2C(C(=O)[O-])=C(CN(C)c3scc(C)[n+]3C)CSC12)c1csc(N)n1 (configuration not stated): 0.025
2) CO/N=C(\C(=O)N[C@@H]1C(=O)N2C(C(=O)[O-])=C(C[n+]3cccc4c3CCC4)CS[C@H]12)c1csc(N)n1: 0.025
3) CO/N=C(\C(=O)NC1C(=O)N2C(C(=O)[O-])=C(CN(C)c3sc(C(N)=O)c(C)[n+]3C)CSC12)c1csc(N)n1 (configuration not stated): 0.025
4) CCO/N=C(\C(=O)NC1C(=O)N2C(C(=O)[O-])=C(CN(C)c3sc(C(=O)OCC)c(C)[n+]3C)CSC12)c1csc(N)n1 (configuration not stated): 0.049
5) CO/N=C(\C(=O)NC1C(=O)N2C(C(=O)[O-])=C(CN(C)c3sc(C)c(C)[n+]3C)CSC12)c1csc(N)n1 (configuration not stated): 0.025
6) CCO/N=C(\C(=O)NC1C(=O)N2C(C(=O)[O-])=C(CN(C)c3sc4c([n+]3C)CCCC4)CSC12)c1csc(N)n1 (configuration not stated): 0.049
7) C=CCO/N=C(\C(=O)NC1C(=O)N2C(C(=O)[O-])=C(CN(C)c3scc(C)[n+]3C)CSC12)c1csc(N)n1 (configuration not stated): 0.049
